Here the recorded GI50 is given for each entry.
Test system: KM12
assay.method.text: NCI tumour cell line growth inhibition, 48 h
The source made the active and inactive calls. No stated cut-off is given here; in the data, active = GI50 up to about 1.1 µM and inactive = higher.

compound | assayed.target | GI50
O=S(=O)(O)c1ccc(/N=N/c2ccc(/N=N/c3c(O)c(S(=O)(=O)O)cc4cc(S(=O)(=O)O)ccc34)cc2)cc1 | KM12 | > 100 µM (inactive)
COc1cc(/C=C2\C(=O)N(c3ccccc3Cl)C(c3ccccc3)S2(=O)=O)cc(OC)c1OC (stereo not given) | KM12 | 27.2 µM (inactive)

Record COc1nc2ncc([C@@H](OC(C)=O)[C@@H](COC(C)=O)OC(C)=O)nc2c(=O)n1C . Reported GI50: > 100 µM (inactive)

Record O=C1NCC2(CCN(CCCC3(c4ccc(F)cc4)OCCO3)CC2)N1c1ccccc1 . Reported GI50: > 100 µM (inactive)

Record Cc1ccc(Cc2nnc(S)[nH]2)cc1 . Reported GI50: 79.1 µM (inactive)

---

Test system: T47D
assay.method.text: NCI tumour cell line growth inhibition, 48 h
Activity calls are given as the source filed them. Cut-off read from the data, not from the text of the source: active = GI50 up to about 1.1 µM and inactive = higher.
Returns: one label drawn from yes (active), no (inactive)

Here's what some known entries look like.
compound | class
O/N=C1/C2CC3CC1(c1ccccc1)CC(/C3=N/O)/C2=N\O (stereo not given) | no
CCCCn1cnnc1NS(=O)(=O)c1cc(C)c(Cl)cc1SCC(=O)O | no
Cn1c2ccccc2n2c3ccccc3c(=O)c(C#N)c12 | no
CC(=O)OCCN(C1=NCCN1)/[N+](C=c1ccc(=C=[N-])cc1)=C/c1ccc(C#N)cc1 | no
C/C(CC(O)(C(F)(F)F)C(F)(F)F)=N\O | no
CC[C@@]1(O)C(=O)OCc2c1cc1n(c2=O)Cc2c-1nc1ccccc1c2/C=N\NC(=O)C(N)Cc1c[nH]c2ccccc12 (stereo not given in full) | yes
Nc1nc(N)c(-c2cccc(C(F)(F)F)c2)c(Cc2cccc(C(F)(F)F)c2)n1 | no
N/N=C(\N)SCc1ccc(N=C=S)cc1 | no
O=C1/C(=C/c2ccccc2)CN(C(=O)CCN2CCCC2)C/C1=C\c1ccccc1 | no
COc1nc2ncc([C@@H](OC(C)=O)[C@@H](COC(C)=O)OC(C)=O)nc2c(=O)n1C | no

Q. Given COC(=O)C(/C(=N/N)C(=O)Nc1cccc(O)c1)c1nc2ccccc2nc1O (stereo not given) , state the outcome it received in this test.
A. no

Q. Given NS(=O)(=O)c1ccc(CNc2nc(-c3cccs3)nc3ccc(I)cc23)cc1 , state the outcome it received in this test.
A. yes

Q. Given NNC1=N/C(=C\c2ccccc2O)C(=O)N1 , state the outcome it received in this test.
A. no

Q. Given COC(=O)C1=C(OC(=O)/C(=C/c2ccccc2)c2ccc(OC)cc2)C(C(=O)OC)[C@@]2(O)[C@@H](C(=O)OC)[C@H](C)C[C@@H]1[C@@H]2C(=O)OC (stereo not given in full) , state the outcome it received in this test.
A. no

Q. Given Cc1ccc(-c2c3nc(c(-c4ccc(C)cc4)c4ccc([nH]4)c(-c4ccc(OCC5COC(C)(C)O5)cc4)c4nc(c(-c5ccc(C)cc5)c5ccc2[nH]5)C=C4)C=C3)cc1 (stereo not given) , state the outcome it received in this test.
A. no

Q. Given COC(=O)NNC(=O)OC.COC(=O)Nc1ccccc1NC(=O)OC.COC(=O)Oc1nn(C(=O)OC)c(=O)c2ccccc12 , state the outcome it received in this test.
A. no

Q. Given CC(C)(C)OC(=O)N/C(C=O)=C\C1CCCCC1 , state the outcome it received in this test.
A. no

Q. Given CC(=O)Oc1cc2c(n(C)c1=O)-c1ccccc1C2 , state the outcome it received in this test.
A. no

Q. Given O=C(c1c(F)c(F)c(F)c(F)c1F)n1c(O)nc2ccccc21 , state the outcome it received in this test.
A. no

Q. Given CNc1cc(Cl)ccc1C(=O)N1CCC[C@H]1CO , state the outcome it received in this test.
A. no

---

System: IGROV-1
assay.method.text: NCI tumour cell line growth inhibition, 48 h
Activity calls are given as the source filed them. Rule as the data show it: active = GI50 up to about 1.1 µM and inactive = higher.
Returns: one label drawn from active, inactive

compound | assayed.target | class
O=c1[nH]nc(-c2ccccc2)c2[nH]c(-c3ccccc3)cc12 | IGROV-1 | inactive
CC(C)[C@@H]1CC[C@@H](C)C[C@H]1OC(=O)/C=C1/C2C=CC(O2)C1C(=O)O[C@@H]1C[C@H](C)CC[C@H]1C(C)C (some centres undefined) | IGROV-1 | inactive
COc1cccc(/C=N/[N-]C(=S)Nc2ccccc2)c1[O-].O.[Zn+2] | IGROV-1 | inactive

Q. Given CC(=O)NC1C(OCc2ccccc2)OC(CO)C(O)C1OC(C)C(=O)N[C@@H](C)C(=O)N[C@H](CCC(=O)NCCNCCNc1c2ccccc2nc2cccc([N+](=O)[O-])c12)C(N)=O (some centres undefined) , state the outcome it received in this test.
A. active

---

System: CCRF-CEM
assay.method.text: NCI tumour cell line growth inhibition, 48 h
The source made the active and inactive calls. Cut-off read from the data, not from the text of the source: active = GI50 up to about 1.1 µM and inactive = higher.
Returns: one label drawn from YES for active, NO for inactive

compound | class
Cc1cn(C2C=CC(COP(=O)(OCc3ccc([N+](=O)[O-])o3)N(C)CCCCCl)O2)c(=O)[nH]c1=O (stereo not drawn) | NO
CCOP(=S)(OCC)Oc1ccc2c(c1)OC(=O)C1(Cl)C2(C)C2(Cl)C(=O)Oc3cc(OP(=S)(OCC)OCC)ccc3C12C (stereo not drawn) | NO
CCOP(=O)(O)C(Nc1ccc(/N=N/c2ccccc2)cc1)c1ccc(C(Nc2ccc(/N=N/c3ccccc3)cc2)P(=O)(O)OCC)cc1 (stereo not drawn) | NO

Q. Given CCCCC(=O)c1ccc2ccccc2c1O , state the outcome it received in this test.
A. NO

Q. Given CCCCn1cnnc1NS(=O)(=O)c1cc(C)c(Cl)cc1SCC(=O)O , state the outcome it received in this test.
A. NO

Q. Given CC(=O)NC1C(OCc2ccccc2)OC(CO)C(O)C1OC(C)C(=O)N[C@@H](C)C(=O)N[C@H](CCC(=O)NCCNCCNc1c2ccccc2nc2cccc([N+](=O)[O-])c12)C(N)=O (stereo partly drawn) , state the outcome it received in this test.
A. YES

Q. Given COC(=O)CSc1[nH]c2nc(C)nc(Nc3ccccc3)c2c1C#N , state the outcome it received in this test.
A. NO

Q. Given Cc1cc(C)c2c(O)cc(-c3ccc(Cl)cc3)nc2n1 , state the outcome it received in this test.
A. NO

---

Tested on: MCF7
assay.method.text: NCI tumour cell line growth inhibition, 48 h
The source made the active and inactive calls. Rule as the data show it: active = GI50 up to about 1.1 µM and inactive = higher.
Returns: one label drawn from TRUE = active, FALSE = inactive

molecule | class
O=c1[nH]cnc2c1sc1nc3ccccc3n12 | FALSE
CNc1cc(Cl)ccc1C(=O)N1CCC[C@H]1CO | FALSE
CC(C)[Si](OC1=CCC[C@H]2NC(=O)[C@@H](Cc3ccccc3)[C@@]12C)(C(C)C)C(C)C | FALSE
CCOC(=O)C1CCCCN1CCc1c[nH]c2ccccc12 (stereo not given) | FALSE
Cc1nc2c(O)cccc2c(=O)[nH]1 | FALSE
Cc1cc2c(cc1C)[n+]([O-])c(C(=O)/C=C/c1ccc3c(c1)OCO3)c(C)[n+]2[O-] | FALSE

Q. Given Fc1cc(F)c(F)c(S)c1F , state the outcome it received in this test.
A. FALSE

Q. Given Cc1[nH]c2ccccc2c1/C=N/NC(=O)c1cccc(I)c1 , state the outcome it received in this test.
A. FALSE

---

System: SNB-19
assay.method.text: NCI tumour cell line growth inhibition, 48 h
Calls of active or inactive are those of the source. No stated cut-off is given here; in the data, active = GI50 up to about 1.1 µM and inactive = higher.
Here the recorded GI50 is given for each entry.

Observe how each entry below is paired with its result.
compound | result
COC(=O)C(NC(=O)C(CC(=O)OC(C)(C)C)NC(=O)OC(C)(C)C)C(O)c1ccccc1 (stereo unspecified) | > 100 µM (inactive)
CO/C(=N\N=C\c1cccc(C(F)(F)F)c1)c1ccncc1 | 9.08 µM (inactive)

For NS(=O)(=O)c1ccc(/C=C/c2ccc(F)cc2)cc1 on SNB-19, measured GI50 was 33.9 µM (inactive)

For CC(C)(C)c1cc(C(=O)/C=C/c2c(Cl)cccc2Cl)cc(C(C)(C)C)c1O on SNB-19, measured GI50 was 11.9 µM (inactive)

For O/N=C1/C2CC3CC1(c1ccccc1)CC(/C3=N/O)/C2=N\O (stereo unspecified) on SNB-19, measured GI50 was > 100 µM (inactive)

For COC(=O)NNC(=O)OC.COC(=O)Nc1ccccc1NC(=O)OC.COC(=O)Oc1nn(C(=O)OC)c(=O)c2ccccc12 on SNB-19, measured GI50 was > 100 µM (inactive)

For CC(C)(C)C(=O)CP(=O)(O)O on SNB-19, measured GI50 was > 100 µM (inactive)

For BrC(c1cccc2ccccc12)c1cccc2ccccc12 on SNB-19, measured GI50 was 43.4 µM (inactive)

For CC(/C=C/c1ccccc1)=N\NC(=S)N/N=C(C)/C=C/c1ccccc1 on SNB-19, measured GI50 was 23.2 µM (inactive)

For CCOC(=O)c1nc2c3c(ncn2n1)Oc1c(c(-c2ccccc2)nn1-c1ccccc1)C3c1ccc(Cl)cc1 (stereo unspecified) on SNB-19, measured GI50 was > 100 µM (inactive)

For CSc1s[s+]c(SC)c1-c1ccccc1 on SNB-19, measured GI50 was 16.6 µM (inactive)

For C=Cc1ccccc1C1C(C(=O)OCC)=C(C)N=C2OC(C(=O)OC)C(=O)N21 (stereo unspecified) on SNB-19, measured GI50 was > 100 µM (inactive)

For Clc1ccc2oc(CCC3CCCCC3)nc2c1 on SNB-19, measured GI50 was 42.3 µM (inactive)

For OC1(c2ccc(Cl)cc2)c2c(c3ccccc3c3ccccc23)C2=NCCN21 (stereo unspecified) on SNB-19, measured GI50 was 13.6 µM (inactive)

For C=C1C(O)C[C@H](OC(C)=O)[C@]2(C)C1C(OC(C)=O)[C@]1(C(C)(C)O)CC(O)C(C)=C1[C@@H](OC(=O)c1ccccc1)C2OC(C)=O (stereo partly specified) on SNB-19, measured GI50 was > 10 µM (inactive)

For COc1cccc(/C=N/[N-]C(=S)Nc2ccccc2)c1[O-].O.[Zn+2] on SNB-19, measured GI50 was 66.1 µM (inactive)

For Cc1[nH]c2ccccc2c1/C=N/NC(=O)c1cccc(I)c1 on SNB-19, measured GI50 was 29 µM (inactive)
